System: Staphylococcus sp.
Assay: In vitro antibacterial evaluation: minimum inhibitory concentration (MIC), broth dilution method
Assay type: cell-based
Details: Staphylococcus aureus (GC 4542); 18 hours at 35° C.
PROPERTY NAME: MIC Staphylococcus aureus (GC 4542) (µg/mL)
Report the value in µg/mL with no unit label.

Look over these answered cases.
{"COMPOUND": "CC(c1ccccc1)C1NC(=O)CNC(=O)C(CO)NC(=O)C(C(O)C2CNC(=N)N2C2OC(CO)C(O)C(O)C2O)NC(=O)C(C(O)C2CNC(=N)N2)NC(=O)C(Cc2ccc(OC3OC(CO)C(OC4OC(COCc5cccs5)C(O)C(O)C4O)C(O)C3O)cc2)NC1=O (stereo not drawn) [Example 244]", "PROPERTY NAME": "MIC Staphylococcus aureus (GC 4542)", "QUANTITATIVE READOUT": 1}
{"COMPOUND": "COc1ccc2cc(COCC3OC(OC4C(CO)OC(Oc5ccc(CC6NC(=O)C(C(C)c7ccccc7)NC(=O)CNC(=O)C(CO)NC(=O)C(CC7CNC(=N)N7C7OC(CO)C(O)C(O)C7O)NC(=O)C(CC7CNC(=N)N7)NC6=O)cc5)C(O)C4O)C(O)C(O)C3O)ccc2c1 (stereo not drawn) [Example 245]", "PROPERTY NAME": "MIC Staphylococcus aureus (GC 4542)", "QUANTITATIVE READOUT": 4}
{"COMPOUND": "CC(c1ccccc1)C1NC(=O)CNC(=O)C(CO)NC(=O)C(C(O)C2CNC(=N)N2C2OC(CO)C(O)C(O)C2O)NC(=O)C(C(O)C2CNC(=N)N2)NC(=O)C(Cc2ccc(OC3OC(CO)C(OC4OC(COCC=Cc5ccccc5)C(O)C(O)C4O)C(O)C3O)cc2)NC1=O (stereo not drawn) [Example 242]", "PROPERTY NAME": "MIC Staphylococcus aureus (GC 4542)", "QUANTITATIVE READOUT": 4}
{"COMPOUND": "CC(c1ccccc1)C1NC(=O)CNC(=O)C(CO[Si](C)(C)C(C)(C)C)NC(=O)C(C(O)C2CNC(=N)N2C2OC3COC(C)(C)OC3C3OC(C)(C)OC32)NC(=O)C(C(O)C2CNC(=N)N2)NC(=O)C(Cc2ccc(O)cc2)NC1=O (stereo not drawn) [Example 248]", "PROPERTY NAME": "MIC Staphylococcus aureus (GC 4542)", "QUANTITATIVE READOUT": 64}
{"COMPOUND": "CC(C)CC(=O)OC1C(OC2C(CO)OC(Oc3ccc(CC4NC(=O)C(C(C)c5ccc(F)cc5)NC(=O)CNC(=O)C(CO)NC(=O)C(C(O)C5CNC(=N)N5C5OC(CO)C(O)C(O)C5O)NC(=O)C(C(O)C5CNC(=N)N5)NC4=O)cc3)C(O)C2O)OC(CO)C(O)C1O (stereo not drawn) [Example 261b]", "PROPERTY NAME": "MIC Staphylococcus aureus (GC 4542)", "QUANTITATIVE READOUT": 16}
{"COMPOUND": "CC(c1ccccc1)C1NC(=O)CNC(=O)C(CO)NC(=O)C(CC2CNC(=N)N2C2OC(CO)C(O)C(O)C2O)NC(=O)C(CC2CNC(=N)N2)NC(=O)C(Cc2ccc(OC3OC(CO)C(OC4OC(CO)C(O)C(OCc5ccc(OCc6ccccc6)cc5)C4O)C(O)C3O)cc2)NC1=O (stereo not drawn) [Example 246b]", "PROPERTY NAME": "MIC Staphylococcus aureus (GC 4542)", "QUANTITATIVE READOUT": 64}

Short answer please: MIC Staphylococcus aureus (GC 4542), Staphylococcus sp., entry CC(c1ccccc1)C1NC(=O)CNC(=O)C(CO)NC(=O)C(C(O)C2CNC(=N)N2C2OC(CO)C(O)C(O)C2O)NC(=O)C(C(O)C2CNC(=N)N2)NC(=O)C(Cc2ccc(OC3OC(CO)C(OC4OC(CO)C(O)C(OCc5ccc(OCc6ccccc6)cc5)C4O)C(O)C3O)cc2)NC1=O (stereo not drawn) [Example 231c]
2

Sourced from patent US8247211B2
